This section presents binders with their documented koff values.
# assayedTarget: T1, recombinant human GPC3 protein (human, UniProt P51654 25-563)
# T1 construct: also called human GPC3 full-length protein; recombinant GPC3 protein
# protocol: BLI (Octet), antibody on Protein A probe
parameterMeasured: koff (s⁻¹)

- binder: "h49G8VHv6VKv4 (antibody, V domains shown, Humanized 49G8) VH: QVQLVQSGAEVKKPGSSVKVSCKASGYTFADYEIHWVRQAPGQGLEWMGAIHPGSGGTAYAQKFQGRVTLTADESSTTAYMELSSLRSEDTAVYYCTRYYSFAYWGQGTLVTVSS VL: DVVMTQSPLSLPVTPGEPASISCRSSQSIVHSNSNTYLEWYLQKPGQSPQLLIYKVSNRFSGVPDRFSGSGSGTDFTLKISRVEAEDVGVYFCLQVTHVPLTFGQGTKLEIK"
  parameterMeasured: "koff"
  numericValue: 0.000205
- binder: "49G8 (antibody, V domains shown, Chimeric human IgG1; also called 49G8 chimeric antibody; Mab 49G8) VH: QVQLQQSGAELVRPGASVKLSCKALGYTFADYEIHWVKQTPVHGLEWIGAIHPGSGGTAYNQTFEGKATLTADKSSTTAYMELSSLTSEDSAVYYCTRYYSFAYWGQGTLVTVSA VL: DVVMTQTPLSLPVSLGDQASISCRSSQSIVHSNGNTYLEWYLQKPGQSPKLLIYKVSNRFSGVPDRFSGSGSGTDFTLKISRVEAEDLGVYFCLQVTHVPLTFGAGTKLELK"
  parameterMeasured: "koff"
  numericValue: "9.35e-05"
- binder: "h49G8VHv6VKv3 (antibody, V domains shown, Humanized 49G8) VH: QVQLVQSGAEVKKPGSSVKVSCKASGYTFADYEIHWVRQAPGQGLEWMGAIHPGSGGTAYAQKFQGRVTLTADESSTTAYMELSSLRSEDTAVYYCTRYYSFAYWGQGTLVTVSS VL: DVVMTQSPLSLPVTPGEPASISCRSSQSIVHSNGNTYLEWYLQKPGQSPQLLIYKVSNRFSGVPDRFSGSGSGTDFTLKISRVEAEDVGVYFCLQVTHVPLTFGQGTKLEIK"
  parameterMeasured: "koff"
  numericValue: 0.000134
